viability, T/C: recorded values
System: NCI-H1876 complex spheroid growth, % test/control
Assay: Anticancer human tumor NCI-H1876 cell line growth inhibition [Asc];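 note: compound exposure lasted 7 days starting three days after seeding; 100% = DMSO vehicle control wells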
Conditions: second compound 1 µM; first compound 0.316 µM; stronger effect = lower value

Compound	viability, T/C (%)
C=CC(=O)N1CCN(c2nc(=O)n(-c3c(C)ccnc3C(C)C)c3nc(-c4c(O)cccc4F)c(F)cc23)C(C)C1 (stereo not drawn) + Cc1c(S(C)(=O)=O)c(-c2cc(F)cc(N3CCN(c4ccc(NS(=O)(=O)c5ccc(NC(CCN6CCC(C(=O)OCCCP(=O)(O)O)CC6)CSc6ccccc6)c(S(=O)(=O)C(F)(F)F)c5)cc4)CC3)c2)c(-c2ccc(Cl)cc2)n1C(C)C	111
O=C(c1ccc(F)c(F)c1Nc1ccc(I)cc1F)N1CC(O)([C@@H]2CCCCN2)C1 + CNC(C)C(=O)NC1CN(S(=O)(=O)c2cccc(S(=O)(=O)N3CCC4CCC(C(=O)NC(c5ccccc5)c5ccccc5)N4C(=O)C(NC(=O)C(C)NC)C3)c2)CCC2CCC(C(=O)NC(c3ccccc3)c3ccccc3)N2C1=O	88
CCN1CCN(Cc2ccc(Nc3ncc(F)c(-c4cc(F)c5nc(C)n(C(C)C)c5c4)n3)nc2)CC1 + CNC(C)C(=O)NC1CN(S(=O)(=O)c2cccc(S(=O)(=O)N3CCC4CCC(C(=O)NC(c5ccccc5)c5ccccc5)N4C(=O)C(NC(=O)C(C)NC)C3)c2)CCC2CCC(C(=O)NC(c3ccccc3)c3ccccc3)N2C1=O	129
